test system: BT-549; assay: NCI tumour cell line growth inhibition, 48 h
Structures can show the parent of a compound that is named as a salt. Active and inactive are the calls of the source. Cut-off read from the data, not from the text of the source: active = GI50 up to about 1.1 µM and inactive = higher.
quantityName: GI50

Worked cases, answers included:
COc1ccc(CCN2CCN(CCc3ccc(OC)cc3)CC2)cc1 ... > 100 µM (inactive)
CCOc1ccc(-n2c(=O)n3c(Nc4ccc(Cl)cc4)nc4c(c(=O)n(C)c(=O)n4C)n3c2=O)cc1 ... 29 µM (inactive)
CCC(CCN)(CCN)[N+](=O)[O-] ... > 100 µM (inactive)
Cc1cccc(/N=N/C(=O)NNc2cccc(C)c2C)c1C ... 23.3 µM (inactive)
Cc1ccc(S(=O)(=O)N2CCSCCSCCSCCSCC2)cc1 ... 25.4 µM (inactive)
CCOC(=O)/C(C(N)=O)=C(/O)c1cnccn1 ... > 100 µM (inactive)

Enquiry: Endpoint output: GI50 of CC(=O)N(O)CCCCCNC(=O)CCC(=O)N(O)CCCCCNC(=O)CCC(=O)N(O)CCCCCN [DEFEROXAMINE HYDROCHLORIDE] . Value?
Return: 57.5 µM (inactive)

Enquiry: Endpoint output: GI50 of OCCCCCNc1nc(O)c2[nH]cnc2n1 . Value?
Return: > 100 µM (inactive)

Enquiry: Endpoint output: GI50 of O=c1[nH]nc(Nc2ccc(Cl)cc2)c2nnn(C3CCCCC3)c12 . Value?
Return: > 100 µM (inactive)

Enquiry: Endpoint output: GI50 of O=C(CC(=O)N(C(=O)c1ccccc1)c1ccc(Cl)cc1)N/N=C\c1ccccc1O . Value?
Return: 21.1 µM (inactive)

Enquiry: Endpoint output: GI50 of CCCCNC(=O)C1=C(C)NC(C)=C(C(=O)NCCCC)C1 . Value?
Return: > 100 µM (inactive)

Enquiry: Endpoint output: GI50 of O=C1/C(=C/c2ccc(Br)s2)NC(=S)N1CN1CCOCC1 . Value?
Return: 34 µM (inactive)

Enquiry: Endpoint output: GI50 of CN(C)c1ccc(C(=O)NCCCCCCC(=O)NO)cc1 . Value?
Return: 1.7 µM (inactive)
